target.system: HIV-1 NefNL4-3 (Human immunodeficiency virus type 1 group M subtype B, UniProt P03406, A33V/T15A/T51N/V11I)
experiment: Surface plasmon resonance binding to recombinant full-length Nef (NL4-3)
test.settings: Table 4; 2-step induced fit; T = 1/koff2
Provide the reported T, minutes (residence time) of each item.
I only need the number, in E + 00 minutes, no unit after it.

Respond only with T, minutes (residence time) recorded for CS(=O)(=O)N1CCC(CCc2c(-c3ccc(C(F)(F)F)cn3)nn(-c3nc4ccccc4[nH]3)c2O)CC1
3.22

Respond only with T, minutes (residence time) recorded for CC(=O)N1CCC(c2nn(-c3nc4ccccc4[nH]3)c(O)c2Cc2ccc(F)c(F)c2)CC1
5.61

Respond only with T, minutes (residence time) recorded for CC(C)OC(=O)N1CCC(c2nn(-c3nc4cc(Cl)ccc4[nH]3)c(O)c2CCC2CCOCC2)CC1
4.73

Respond only with T, minutes (residence time) recorded for Oc1c(CCC2CCOCC2)c(-c2cccc(F)c2)nn1-c1nc2ccccc2[nH]1
9.69

Respond only with T, minutes (residence time) recorded for O=C(c1nn(-c2nc3ccccc3[nH]2)c(O)c1CCc1ccc(F)cc1)N1CCCCC1
2.85

Respond only with T, minutes (residence time) recorded for Oc1c(CCc2ccc(F)cc2)c(-c2ccccc2)nn1-c1nc2cc(Cl)ccc2[nH]1
5.10

Respond only with T, minutes (residence time) recorded for CC[C@H](C)[C@H](O)C(=O)N1CCC(c2nn(-c3nc4ccccc4[nH]3)c(O)c2CCc2ccc(F)cc2)CC1
3.78
